Molecular target: Recombinant human BACE-1 (Homo sapiens (Human), UniProt P56817)
Sequence (P56817 46-501): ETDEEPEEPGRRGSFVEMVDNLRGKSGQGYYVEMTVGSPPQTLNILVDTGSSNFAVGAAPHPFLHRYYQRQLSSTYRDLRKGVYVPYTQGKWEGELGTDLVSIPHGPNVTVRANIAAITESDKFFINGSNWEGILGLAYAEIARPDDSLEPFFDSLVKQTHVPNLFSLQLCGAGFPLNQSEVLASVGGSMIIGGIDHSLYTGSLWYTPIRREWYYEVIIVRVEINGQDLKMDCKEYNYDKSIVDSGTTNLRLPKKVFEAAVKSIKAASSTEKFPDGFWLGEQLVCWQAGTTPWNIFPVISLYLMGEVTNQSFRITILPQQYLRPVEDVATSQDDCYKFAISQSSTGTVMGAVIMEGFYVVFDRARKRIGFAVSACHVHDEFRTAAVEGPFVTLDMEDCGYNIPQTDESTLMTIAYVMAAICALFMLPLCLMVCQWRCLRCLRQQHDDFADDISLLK
Assay: Measurement of BACE1 inhibitory activity
Conditions: Recombinant human BACE-1 7.4 nM, substrate peptide 18 nM, pH 5.0, 3 hours at 30° C.; read-out: IC50 (BACE1 enzyme activity)
property label: pIC50
One number for each entry, as −log10 of the molar value.

Here is how some compounds turned out for pIC50.
> print(dat)
                                   compound  recorded.value
1  COc1cnc(C(=O)Nc2cccc(C3(C)CC(=O)N(C)C(N)=N3)c2)cn1 (stereo not drawn)            7.38
2  COCCOc1cnc(C(=O)Nc2cccc(C3(C)CC(=O)N(C)C(N)=N3)c2)cn1 (stereo not drawn)            7.85
3  C#CCOc1cnc(C(=O)Nc2cccc(C3(C)CC(=O)N(C)C(N)=N3)c2)cn1 (stereo not drawn)            7.25
4  CC#CCOc1cnc(C(=O)Nc2cccc(C3(C)CC(=O)N(C)C(N)=N3)c2)cn1 (stereo not drawn)            7.92
5   COc1cnc(C(=O)Nc2cccc(CNc3cccnc3N)c2)cn1            5.70
6  CN1C(=O)CC(C)(c2cccc(NC(=O)c3cnc(Cl)cn3)c2)N=C1N (stereo not drawn)            7.43
7  COCCOc1cnc(C(=O)Nc2cccc(CNc3cccnc3N)c2)cn1            5.50
8  C#CCOc1cnc(C(=O)Nc2cccc(CNc3cccnc3N)c2)cn1            6.74

Item `CC#CCOc1cnc(C(=O)Nc2cccc(CNc3cccnc3N)c2)cn1` has what recorded pIC50?
7.14

---

Target: CYP1A2 (Homo sapiens (Human))
Test: CYP inhibition test (CYP1A2)
Type: in vitro ADME
Settings: pooled human liver microsomes, O-deethylation of 7-ethoxyresorufin; read-out: IC50 CYP1A2 inhibition
Method: […] As a reaction solution, the respective five substrates, human liver microsomes, and test compound in the aforementioned amounts were added to a 50 mM Hepes buffer in a 96-well microplate. […] Centrifugation was performed for 15 minutes at 3000 rpm, and each metabolite in the centrifuged supernatant was quantified. […]
pIC50: −log10 of the molar value.
property label: pIC50

Test system CYP1A2 (Homo sapiens (Human)); read-out pIC50; what value for `COc1cnc(C(=O)Nc2cccc(CNc3cccnc3N)c2)cn1` ?
< 4.70

---

Biological target: UniProtKB P10635
Sequence (P10635 whole entry): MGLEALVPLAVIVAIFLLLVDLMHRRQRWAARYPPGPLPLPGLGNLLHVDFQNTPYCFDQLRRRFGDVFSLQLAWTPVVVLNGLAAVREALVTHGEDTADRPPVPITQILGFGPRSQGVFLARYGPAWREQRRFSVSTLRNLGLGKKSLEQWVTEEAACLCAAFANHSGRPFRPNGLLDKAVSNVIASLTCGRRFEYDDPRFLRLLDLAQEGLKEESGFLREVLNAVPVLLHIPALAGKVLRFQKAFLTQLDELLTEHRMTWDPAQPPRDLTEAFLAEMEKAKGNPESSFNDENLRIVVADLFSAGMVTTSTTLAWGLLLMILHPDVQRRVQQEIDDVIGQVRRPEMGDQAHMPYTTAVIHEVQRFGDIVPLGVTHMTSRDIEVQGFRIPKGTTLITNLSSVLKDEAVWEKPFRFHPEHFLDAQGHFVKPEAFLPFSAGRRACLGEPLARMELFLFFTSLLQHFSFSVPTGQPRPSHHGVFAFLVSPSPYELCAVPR
pIC50: −log10 of the molar value.
property label: pIC50

> print(dat)
                                  molecule       test.target  recorded.value
1  COc1cnc(C(=O)Nc2cccc(CNc3cccnc3N)c2)cn1  UniProtKB P10635          < 4.70

Attention now turns to another entry.
Item CC#CCOc1cnc(C(=O)Nc2cccc(C3(C)CC(=O)N(C)C(N)=N3)c2)cn1 (centres unmarked) has what recorded pIC50?
< 4.70

---

Target: CYP1A2 (Homo sapiens (Human), UniProt P05177)
Sequence (P05177 whole entry): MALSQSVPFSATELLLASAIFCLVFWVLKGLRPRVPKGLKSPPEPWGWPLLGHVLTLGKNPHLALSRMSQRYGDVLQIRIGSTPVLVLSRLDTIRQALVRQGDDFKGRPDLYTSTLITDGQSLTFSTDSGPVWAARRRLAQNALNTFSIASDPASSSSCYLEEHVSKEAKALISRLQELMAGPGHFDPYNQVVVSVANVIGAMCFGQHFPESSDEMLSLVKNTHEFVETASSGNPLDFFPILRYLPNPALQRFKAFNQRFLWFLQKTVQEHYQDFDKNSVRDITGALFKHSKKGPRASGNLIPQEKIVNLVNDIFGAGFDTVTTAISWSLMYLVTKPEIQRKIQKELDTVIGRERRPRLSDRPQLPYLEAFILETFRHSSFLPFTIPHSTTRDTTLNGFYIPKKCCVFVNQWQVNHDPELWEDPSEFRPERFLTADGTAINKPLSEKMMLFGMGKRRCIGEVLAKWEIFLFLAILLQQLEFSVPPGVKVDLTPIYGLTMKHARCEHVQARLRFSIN
Assay: CYP inhibition test (CYP1A2)
Type: in vitro ADME
property label: IC50

Item CC#CCOc1cnc(C(=O)Nc2cccc(C3(C)CC(=O)N(C)C(N)=N3)c2)cn1 (stereo not shown) has what recorded IC50?
> 20 µM

---

Quick record of pIC50 values for CYP2C9 (Homo sapiens (Human)).
pIC50: −log10 of the molar value.

> print(dat)
                                   compound  property.label  recorded.value
1  CC#CCOc1cnc(C(=O)Nc2cccc(C3(C)CC(=O)N(C)C(N)=N3)c2)cn1 (centres unmarked)           pIC50          < 4.70

Attention now turns to another entry.
Test system CYP2C9 (Homo sapiens (Human)); read-out pIC50; what value for `COc1cnc(C(=O)Nc2cccc(CNc3cccnc3N)c2)cn1` ?
< 4.70
